Experiment: inhibitors of TNFa-induced NFkB p65 translocation, primary screen, imaging, HUVEC, MLSMR starter and 10KST1 sets (AID 438);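 also: compound added about 3h40 before a 20 min TNFalpha stimulation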
Conditions: HUVEC TNFa-induced p65 nuclear translocation; measured here: nuclei count (cytotoxicity indicator), at 2.08 µM
Readout Label: cell count
// return just the number, without any unit appended

Known results for compounds:
{"columns": ["Compound", "Measured Result"],
 "data": [
  ["CCOC(=O)N1CCN(C(=O)c2cn(CC)c3cc(N4CCN(C)CC4)c(F)cc3c2=O)CC1", 544],
  ["N#Cc1c(SCC(N)=O)nsc1SCc1ccc(Cl)cc1", 633],
  ["O=C1NC(c2cccs2)Nc2ccccc21 (centres undefined)", 600],
  ["CCCCC(=O)O[C@]1(C(=O)CO)CC[C@H]2[C@@H]3CCC4=CC(=O)CC[C@]4(C)[C@H]3[C@@H](O)C[C@@]21C", 559],
  ["CSc1nc2sc3c(c2c(=O)n1C1CCCCC1)CCN(C)C3", 563]
]}

Entry CCCCNC(=O)N1CCOCCOCCN(C(=O)NCCCC)CCOCC1 needs its cell count filled in; supply it.
524

Entry O=C(O)C1CCCCN1S(=O)(=O)c1cccc2nsnc12 (centres undefined) needs its cell count filled in; supply it.
488

Entry COc1ccccc1-n1c(=O)c2c3c(sc2n2c(SC(C)C)nnc12)CCC3 needs its cell count filled in; supply it.
643

Entry Cn1c(=O)c2c(nc(NCc3ccc4c(c3)OCO4)n2Cc2ccc(F)cc2)n(C)c1=O needs its cell count filled in; supply it.
600

Entry O=C1OC(Nc2ccc(Br)cn2)c2ccccc21 (centres undefined) needs its cell count filled in; supply it.
388

Entry O=C(O)c1cc(-c2ccccc2)nc2ccccc12 needs its cell count filled in; supply it.
572

Entry Cc1ccc2[nH]c3c(c2c1)CCCC3C(N)=O (centres undefined) needs its cell count filled in; supply it.
548

Entry CCCCOC(=O)CSC1=C(C#N)C(c2ccccc2OC)C(C#N)C(=O)N1 (centres undefined) needs its cell count filled in; supply it.
504

Entry Cc1ccc(N2C(=O)C3ON(c4ccccc4)C(c4ccncc4)C3C2=O)c(C)c1 (centres undefined) needs its cell count filled in; supply it.
326

Entry Cc1cc(N2CCN(C3CCCC3)CC2)n2c(nc3ccccc32)c1C#N needs its cell count filled in; supply it.
582

Entry Cc1nc(-c2cn[nH]c2)c2cc(C)oc2n1 needs its cell count filled in; supply it.
599

Entry OC[C@H]1O[C@@H](n2cnc3c(Nc4ccccc4)ncnc32)[C@H](O)[C@@H]1O needs its cell count filled in; supply it.
606

Entry Cc1nc(NS(=O)(=O)c2ccccc2)sc1NC(=O)OCCN(C)C needs its cell count filled in; supply it.
362

Entry CC(=O)Nc1ccc(S(=O)(=O)Nc2nc3n(n2)C(c2ccccc2)CC(=O)N3)cc1 (centres undefined) needs its cell count filled in; supply it.
456

Entry CN(C)C/C(Cl)=C(\Cl)c1ccccc1 needs its cell count filled in; supply it.
584

Entry C[C@@H]1C[C@H]2[C@@H]3C[C@H](F)C4=CC(=O)C=C[C@]4(C)[C@@]3(F)[C@@H](O)C[C@]2(C)[C@@]1(O)C(=O)CO needs its cell count filled in; supply it.
647

Entry CC(=O)C1=C(O)C(=O)N(c2ccc(C(=O)O)cc2)C1c1ccccc1 (centres undefined) needs its cell count filled in; supply it.
669

Entry CC(O)Cn1ccccc1=N (centres undefined) needs its cell count filled in; supply it.
352

Entry Cc1cc(Cl)ccc1OCC(=O)OC(C)C(=O)N(C)C (centres undefined) needs its cell count filled in; supply it.
356

FYI, the data here is from PubChem BioAssay.
